src = paper PMC12951562

EXPERIMENTAL_TARGET: FRK (Homo sapiens, UniProt P42685)
Construct: the DNA-tagged SH2 domain concentrations used in this study were <0.1 nM; made in house; host or cells: HEK293 (transient transfection; unpurified extract)
Sequence (P42685 116-208 limits assumed): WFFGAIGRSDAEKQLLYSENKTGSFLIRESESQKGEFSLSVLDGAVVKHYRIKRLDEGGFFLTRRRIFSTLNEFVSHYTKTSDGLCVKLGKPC
EXPERIMENTAL_PROTOCOL: biochemical
Format: binding
SETTINGS: primary screen, 10 μM; read-out: percent of DMSO vehicle control
ENDPOINT_NAME: remaining activity at 10 µM
Note to self: number, then unit, no commentary.

Prompt: I am curious: what remaining activity at 10 µM value has been reported for O=C(COc1ccc2cc(C(=O)Nc3ccccc3)ccc2c1)NCc1ccc(OP(=O)(O)O)c(OP(=O)(O)O)c1 ?
Completion: 65.3%

Prompt: I am curious: what remaining activity at 10 µM value has been reported for O=C(CCl)Nc1cccc(CNC(=O)[C@H](Cc2ccc(OP(=O)(O)O)cc2)NC(=O)Cc2ccc(F)cc2)c1 ?
Completion: 69%

Prompt: I am curious: what remaining activity at 10 µM value has been reported for C/C(=C\C(=O)N[C@H](C(=O)N1CCC[C@H]1C(=O)N(c1ccccc1)c1ccc(I)cc1)C(C)(C)C)c1ccc(OP(=O)(O)O)cc1 ?
Completion: 38.3%

Prompt: I am curious: what remaining activity at 10 µM value has been reported for CC(C)(C)[C@H](NC(=O)/C=C/c1ccc(OP(=O)(O)O)cc1)C(=O)N1CCC[C@H]1C(=O)N(c1ccccc1)c1ccc(I)cc1 ?
Completion: 59.9%
